Reported growth values for a set of compounds
# Test system: LOX IMVI melanoma
# assayExplanation: NCI-60 one-dose screen, 48 h (100 = growth as untreated, 0 = no growth, -100 = all killed)
# testSettings: 10 µM unless noted
The panel holds about 83,000 compounds, 20% with a hit somewhere; the sample as a whole holds those more often.
outcomeMeasure: growth (%)

compound: CCO/C=N/C1=C(C#N)C(c2ccc(Cl)cc2)c2sc3c(CC)cccc3c2O1 (stereo not given)
outcomeMeasure: growth
readoutNumber: 29.9
--
compound: O=S(=O)(NCCCNc1nccc(-c2[nH]c(-c3ccccc3)nc2-c2ccc(Cl)c(O)c2)n1)c1cccc(F)c1
outcomeMeasure: growth
readoutNumber: 39.8
--
compound: O=C(NCCn1ccnc1)c1ccc(-c2nc3ccc4[nH]ncc4c3c3c2CCCC3)cc1
outcomeMeasure: growth
readoutNumber: 66.3
--
compound: CC(=O)c1ccc(Nc2nc(SCC(C)C)nc(-c3ccc(F)cc3)c2C#N)cc1
outcomeMeasure: growth
readoutNumber: 112
--
compound: Oc1ccc(CSc2nnc(-c3ccc(Cl)cc3)n2-c2ccccc2)c2cccnc12
outcomeMeasure: growth
readoutNumber: 29.5

----------
# Test system: ACHN renal
# assayExplanation: NCI-60 one-dose screen, 48 h (100 = growth as untreated, 0 = no growth, -100 = all killed)
# testSettings: 10 µM unless noted
About 83,000 compounds went through this panel and 20% of them were active in at least one assay; those are over-represented in the sample as a whole.

compound: O=C(Nc1nonc1-c1ccccc1)c1ccc(C(F)(F)F)cc1
subjectOfTest: ACHN renal
growth [%]: 82.1
--
compound: COc1cc2oc(-c3cccc(NC(=O)c4cc(N)ccc4Cl)c3)cc(=O)c2c(OC)c1OC
subjectOfTest: ACHN renal
growth [%]: 95
--
compound: COC(=O)c1[nH]nc2c1C1(C(=O)c3cccc4cccc1c34)C(C#N)=C(N)O2 (stereo unspecified)
subjectOfTest: ACHN renal
growth [%]: 99.6
--
compound: COc1ccc(/C=N/NC2=NC3C(S2)N(C)C(=O)N3C)cc1 (stereo unspecified)
subjectOfTest: ACHN renal
growth [%]: 42.7
--
compound: Cc1ccc(S(=O)(=O)NCCNc2nc(Nc3ccc(N4CCN(C)CC4)cc3)nc3ccsc23)cc1
subjectOfTest: ACHN renal
growth [%]: 106
--
compound: O=C(NNc1nc2cc(F)c(F)cc2n2c(CN3CC4CNCC4C3)ccc12)c1ncccn1 (stereo unspecified)
subjectOfTest: ACHN renal
growth [%]: 12.7
--
compound: Cn1cc(-c2nnc(N)nc2-c2c[nH]c3ccc(F)cc23)c2cc(F)ccc21
subjectOfTest: ACHN renal
growth [%]: 47.7
--
compound: CC/C(=C/c1cc(OC)ccc1O)c1ccc2cc(OC)ccc2[o+]1
subjectOfTest: ACHN renal
growth [%]: 58.5
--
compound: COc1cc2nc(Cl)nc(Nc3cccc(C4=Nc5c(N)nc(N)nc5NC(c5ccc(Br)cc5)C4)c3)c2cc1OC (stereo unspecified)
subjectOfTest: ACHN renal
growth [%]: 101
--
compound: O=C(O)c1ccc(-n2cc(CNc3cc(F)c(F)c(F)c3)c(-c3ccc(F)cc3)n2)cc1
subjectOfTest: ACHN renal
growth [%]: 71.4
--
compound: CCNC(=O)N1CCc2cc(OC)c(OCCc3ccc(OC)cc3)cc2C1c1ccc(Cl)cc1C (stereo unspecified)
subjectOfTest: ACHN renal
growth [%]: 23.1
--
compound: COc1cc(-c2nc(SC(C)C)n(C(C)C)c(=O)c2C#N)ccc1OCc1ccccc1
subjectOfTest: ACHN renal
growth [%]: 32.5
--
compound: CCOC(=O)C(=O)CC(=O)N1C(=S)NC(=O)C1CC(C)C (stereo unspecified)
subjectOfTest: ACHN renal
growth [%]: 103
--
compound: Cc1ccc(NC(=S)NNC(=S)Nc2ccc(C)cc2)cc1
subjectOfTest: ACHN renal
growth [%]: 105
--
compound: CN(C)C(=O)c1cc(-c2ccc3ncnc(NCc4ccccc4)c3c2)cnc1N
subjectOfTest: ACHN renal
growth [%]: 69.2
--
compound: COc1ccc(CCN2C(=O)CSC2=S)cc1
subjectOfTest: ACHN renal
growth [%]: 99.1
--
compound: COc1cc(-c2nc3sccn3c2-c2ccnc(S(C)(=O)=O)n2)ccc1F
subjectOfTest: ACHN renal
growth [%]: 90.4
--
compound: N#Cc1cnc2ccc(-c3cnc4[nH]ncc4c3)cc2c1N1CCc2cc(F)c(Cl)cc21
subjectOfTest: ACHN renal
growth [%]: 12.5
--
compound: NC(=O)c1cccc(-n2ccc3cc(NC(=O)Nc4ccc(N5CCOCC5)c(C(F)(F)F)c4)ccc32)n1
subjectOfTest: ACHN renal
growth [%]: 11.6
--
compound: O=C(O)c1ccc(-n2cc(CNc3cc(F)c(F)c(F)c3)c(-c3cccc(F)c3)n2)cc1
subjectOfTest: ACHN renal
growth [%]: 77.4
--
compound: Cn1cc(CNc2nc3ccc(OC/C(=C/F)CN)cc3o2)ccc1=O
subjectOfTest: ACHN renal
growth [%]: 105
